Molecular target: Inward rectifier potassium channel 2 (Mus musculus)
Assay: PubChem AID 2345;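 further: 0% = vehicle mean plus 3 SD and 100% = vehicle minus no-stimulus blank window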
Conditions: HEK293 Kir2.1, FluxOR thallium flux fluorescence; at 10 µM
The other results are listed elsewhere or left out. Calls of active or inactive are those of the source.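 How the source made its calls: active means fluorescence ratio rise of at least 3 SD above the vehicle-control mean, seen in both replicates; inactive means the rest.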
Outcomes: 1 for active, 0 for inactive

molecule	class
CCOC(=O)NC(C(F)(F)F)(C(F)(F)F)P(=O)(c1ccccc1)c1ccccc1	0
S=C(NCc1ccc(Cl)cc1)NC12CC3CC(CC(C3)C1)C2	0
CSc1nnc(NC(=O)c2nc(S(=O)(=O)Cc3ccc(C)cc3)ncc2Cl)s1	0
O=C(Nc1ccc(Oc2ccccc2)cc1)c1ccco1	0
Cc1ccc(NC(=O)C2CC2c2ccccc2)cc1 (stereo not drawn)	0
CCOC(=O)c1sc(=S)n2c1[nH]c(=O)c1ccc(C(=O)OC)cc12	0
CCc1ccc(NC(=O)C(=O)NNC(=O)c2cccs2)cc1	0
Cc1cccc(NC(=O)CSC(N)=O)c1C	0
CCCCNC(=O)Nc1c(C)cc(SC#N)cc1C	0
CCC1(C)Cc2c(sc3[nH]c(=S)n(Cc4ccccc4)c(=O)c23)CO1 (stereo not drawn)	1
Cc1cccc(NC(=S)NC(=O)c2ccc(Br)o2)c1	0
CN(c1ccccc1)S(=O)(=O)c1ccc(Cl)c(C(=O)OCC(=O)NCc2ccco2)c1	0
COc1ccc(C(=O)Nc2ncc3c(n2)-c2ccccc2CC3)cc1	0
O=C(NCc1ccc2c(c1)OCO2)c1ccc(Cl)s1	0
O=C(/C=C/Sc1ncn[nH]1)c1ccc(Cl)cc1	0
Oc1c(Cl)cc(Cl)c(Cl)c1Cc1c(O)c(Cl)cc(Cl)c1Cl	0
CC1=C/C(=N\OS(=O)(=O)c2ccccc2)C=CC1=O	0
CC(C)Cc1nnc(NC(=O)CCc2ccccc2)s1	0
CCc1ccccc1NC(=O)[C@@H]1CCC(=O)N1C1OC(=O)c2c1ccc(OC)c2OC (stereo partly drawn)	0
CCn1c2ccccc2c2cc(NC(=O)CNC)ccc21	0
Cc1ccc(CS(=O)(=O)c2ncc(Cl)c(C(=O)Nc3nnc(C)s3)n2)cc1	0
Cc1ccc(-n2nc3c(c2NC(=O)CCC2CCCCC2)CS(=O)C3)cc1 (stereo not drawn)	0
CC(C)(C)C1CCC(C(=O)NCC(c2cccs2)N2CCOCC2)CC1 (stereo not drawn)	0
CCC1(C)Cc2c(sc3nnn(CC(=O)Nc4ccc(Cl)cc4)c(=O)c23)CO1 (stereo not drawn)	0
Cc1cc2cc3c(cc2nc1SCC(=O)Nc1c(C)cccc1C)CCC3	0
Oc1c(Cl)cc(Cl)cc1/C=N/c1ncn[nH]1	0
Cc1cccc(NC(=O)c2nc(S(=O)(=O)Cc3ccccc3)ncc2Cl)c1	0
Cc1ccc(C(=O)Nc2nnc(C3=COCCO3)o2)cc1C	0
COc1ccc(-c2n[nH]c(C)c2-c2ccccc2OC)c(O)c1	0
CC1(c2ccccc2Cl)NC(=O)N(CC(=O)NC(=O)NCc2ccco2)C1=O (stereo not drawn)	0
COc1ccc(NC(=O)/C(Cl)=C(/Cl)S(=O)Cc2ccc(C)cc2)cn1 (stereo not drawn)	0
CC(NC(=O)Nc1cccc([N+](=O)[O-])c1)c1ccc2c(c1)OCO2 (stereo not drawn)	0
N#Cc1c(-c2ccccc2)nc(SCc2cccc(C(F)(F)F)c2)[nH]c1=O	0

Sourced from PubChem BioAssay
